src = patent US20030148958A1

Parameter CRF1R EC50: see the listing below.
Target: corticotropin releasing factor 1 receptor
Experiment: cell-based or functional assay
Ends that are not written are not given here.
quantity-name: CRF1R EC50

INSERT INTO measurements (binder, recorded_value) VALUES
  ('ZGPPISIDLPFHLLRKMIEIEKQEKEKQQATTNARILARV (C-terminal amide) [SEQ ID NO 146]', '103 nM'),
  ('ZGPPISIDLPFVLLRKMIEIEKQEKEKQQAANNRLLLDTI (C-terminal amide) [SEQ ID NO 190]', '> 100 nM'),
  ('ZGPPISIDLPHWLLRKMIEIEKQEKEKQQAANNRLLLDTI (C-terminal amide) [SEQ ID NO 186]', '323 nM'),
  ('IVLSLDVPIGLLQILLEQEKQRAAREQATTNARILARV-NH2 [SEQ ID NO 115]', '> 100 nM'),
  ('ZGPPISIDLPLELLRKMIEIEKQEKEKQQAANNRLLLDTI (C-terminal amide) [SEQ ID NO 82]', '96.2 nM'),
  ('ZGPPISIDLPFLLLRKMIEIEKQEKEKQQAANNRLLLDTI (C-terminal amide) [SEQ ID NO 191]', '63.7 nM'),
  ('ZGPPISIDLPYLLLRKMIEIEKQEKEKQQAANNRLLLDTI (C-terminal amide) [SEQ ID NO 203]', '76.2 nM'),
  ('ZGIVLSLDVPIGLLRKMIEIEKQEKEKQQAANNRLLLDTI (C-terminal amide) [SEQ ID NO 153]', '> 100 nM'),
  ('IVLSLDVPIGLLQILLEQERQEAAREQATTNARILARV-NH2 [SEQ ID NO 118]', '> 100 nM'),
  ('ZGPPISIDLPHHLLRKMIEIEKQEKEKQQAANNRLLLDTI (C-terminal amide) [SEQ ID NO 205]', '126 nM'),
  ('ZGPPISIDLPIWLLRKMIEIEKQEKEKQQAANNRLLLDTI (C-terminal amide) [SEQ ID NO 192]', '562 nM'),
  ('SQEPPISLDLPTELLREVLEMTKADQLAQQAHSNRKIIDIA-NH2 [SEQ ID NO 92]', '100 nM');
